target: Cyclin-dependent kinase 1/G2/mitotic-specific cyclin-B (Marthasterias glacialis, UniProt P15206+Q9DGD3); assay: Kinase Inhibition Assay; conditions: pH 7.2; 30 °C
Sequence (Q9DGD3 whole entry): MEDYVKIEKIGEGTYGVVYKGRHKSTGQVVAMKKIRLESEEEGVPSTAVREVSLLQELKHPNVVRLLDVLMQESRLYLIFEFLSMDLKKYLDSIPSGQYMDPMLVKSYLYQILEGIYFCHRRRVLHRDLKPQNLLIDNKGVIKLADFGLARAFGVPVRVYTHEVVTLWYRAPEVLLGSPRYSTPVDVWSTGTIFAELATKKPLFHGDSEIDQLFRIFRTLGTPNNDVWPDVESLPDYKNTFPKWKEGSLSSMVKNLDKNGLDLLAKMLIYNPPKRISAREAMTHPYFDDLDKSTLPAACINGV
Sequence (P15206 whole entry): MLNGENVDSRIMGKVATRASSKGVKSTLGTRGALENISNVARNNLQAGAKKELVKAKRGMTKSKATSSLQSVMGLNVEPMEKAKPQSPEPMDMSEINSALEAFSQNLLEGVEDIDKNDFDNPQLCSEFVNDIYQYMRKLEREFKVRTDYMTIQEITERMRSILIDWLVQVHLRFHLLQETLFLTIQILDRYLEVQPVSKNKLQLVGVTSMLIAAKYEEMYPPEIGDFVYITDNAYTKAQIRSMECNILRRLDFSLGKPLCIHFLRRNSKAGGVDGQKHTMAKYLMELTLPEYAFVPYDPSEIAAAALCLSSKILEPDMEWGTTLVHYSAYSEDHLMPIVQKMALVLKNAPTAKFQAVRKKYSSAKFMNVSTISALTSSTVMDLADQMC
ATTRIBUTE MEASURED: IC50 (nM)
Return type: number; implicit unit nM.

The compound listed as O=Nc1c(C2C(=O)Nc3ccc(I)cc32)[nH]c2ccccc12 (stereo unspecified) shows IC50 equal to 25
